METHOD: The drug is tested on WLS-038 corresponding to human gut metagenome with ENA study accession number: PRJEB37062 and ENA sample accession number: ERS12561745 for biotransformation under anaerobic condition. The drug concentrations were measured over 9 timepoints collected between 0 and 24 hours of incubation by liquid-chromatography-coupled mass spectrometry (LC–MS); further: call rule not given here
CONDITION: 2 µM
MEASURED ATTRIBUTE: Bacterial Biotransformation

Would you please look over these solved cases?
Cc1nc2n(c(=O)c1CCN1CCC(c3noc4cc(F)ccc34)CC1)CCCC2O (stereo not given): Compound metabolized
CC(C)(C#N)c1cc(Cn2cncn2)cc(C(C)(C)C#N)c1: Compound NOT metabolized
Cc1nc2n(c(=O)c1CCN1CCC(c3noc4cc(F)ccc34)CC1)CCCC2: Compound metabolized
Cc1cn([C@H]2C[C@H](N=[N+]=[N-])[C@@H](CO)O2)c(=O)[nH]c1=O: Compound NOT metabolized

Turning now to a further record.
Query string: Any idea what its Bacterial Biotransformation is? The compound is `CN1CCc2cccc3c2[C@H]1Cc1ccc(O)c(O)c1-3`
Result string: Compound NOT metabolized
